- Test system: endogenous genome targets (ACTB, HSP90AA1)
- Experiment description: Arrayed SSAP library screening, mKate knock-in assay (editing efficiency)
- Assay type: cell-based
- Test context: percent of mKate knock-in; average of HSP90 and ACTB; 3 days after transfection
Recorded Editing Efficiency (Absolute, Average, two targets) for the following molecules
Form rule: numeric answer, no unit written next to it.

SSAP_197: SEQ ID NO: 366; Arsenophonus sp. ENCA (protein, listed as Arsenophonus sp.) NTELETMNNVYDNLQSVIMQQGIAALLPAQVTPEQFTRTAATALIENVDLQNADKQSLVLALTRCAKDGLMPDGREAALVVRSTKVNKQFVKKAVYMPMVDGVIKRARQSGQVANIIAKVVYSQDEFEYVIDENGEHLTHRPAFVDGDDIVKVYAFAKLNSGELVVEVMSRAGVEKIRDTVQSAKYDSSPWVKWFDRMALKTVIHRLARRLPCASELFSLFEVYEDANSTEKTLRMAPASFKRLSIN | 14.025

Consider the additional molecule presented here.
What the record says about SSAP_229: SEQ ID NO: 398; Amycolatopsis sp. CB00013 (protein, listed as Amycolatopsis sp.) TTQTVTSAVAQQDSSPAALVRKYRTDFATVLPSHIKPETWLRIATGALRRSSQLAHAAEKNPTSLLVALLDAARKGLEPGTEQYYLVPRKTKRGPEVLGITGYQGEVELMYRAGAVSSVKVEGVREHDTFAYNPGEHDRPVHEINWRANRGDLVLAYAYAYAKMRDGATSNVSVLSADDIAVILSKAEGADSPFSPWQWNPKAMWLKSAAHQLAKWVPTSAERVWQPDGPPLEAPPATPVTLPTVEDVVDAEVVEDWPTTPADTADSEQ : Editing Efficiency (Absolute, Average, two targets) is 9.8525
